System: Escherichia coli TOP10
protocol: shrunken log2 fold change of peptide-encoding DNA abundance (4.5 h post-induction vs induction); higher = less antimicrobial activity (less host growth inhibition)
test context: time post-induction: 4.5 h; library: site-saturation at positions 5, 18, 19, 20
Output rule met for shrunken log2 fold change not less than 0.3; output rule not met otherwise.

Use the examples below as a reference point.
- RRIRHRPPRLPRPRPRPVIRPRP: rule not met
- RRIRSRPPRLPRPRPRPSRGPRP: rule met
- RRIRKRPPRLPRPRPRPYCRPRP: rule not met
- RRIRERPPRLPRPRPRPKRLPRP: rule not met
- RRIRRRPPRLPRPRPRPWPAPRP: rule met
- RRIRERPPRLPRPRPRPQCEPRP: rule not met
- RRIRCRPPRLPRPRPRPSVTPRP: rule not met
- RRIRRRPPRLPRPRPRPTHKPRP: rule met
- RRIRVRPPRLPRPRPRPKPGPRP: rule met
- RRIRMRPPRLPRPRPRPALDPRP: rule met

*Q* Does the reported shrunken log2 fold change for RRIRARPPRLPRPRPRPRIEPRP fall at or above the 0.3 mark?
*A* rule met

*Q* Now consider RRIRDRPPRLPRPRPRPIPVPRP .
*A* rule not met

*Q* Okay, and RRIRQRPPRLPRPRPRPFKNPRP ?
*A* rule not met

*Q* One more sequence: RRIRVRPPRLPRPRPRPYMSPRP
*A* rule not met

*Q* Now consider RRIRFRPPRLPRPRPRPGDQPRP and answer again.
*A* rule not met

----------
System: Escherichia coli TOP10
protocol: shrunken log2 fold change of peptide-encoding DNA abundance (4.5 h post-induction vs induction); higher = less antimicrobial activity (less host growth inhibition)
test context: time post-induction: 4.5 h; library: site-saturation at positions 5, 18, 19, 20
value kind: shrunken log2 fold change
Answer with a bare number; do not write a unit.

* RRIRPRPPRLPRPRPRPDMFPRP | 2.58
* RRIRLRPPRLPRPRPRPQTGPRP | -0.247
* RRIRVRPPRLPRPRPRPMLYPRP | -0.375
* RRIRWRPPRLPRPRPRPIVQPRP | 0.0969
* RRIRNRPPRLPRPRPRPQDVPRP | -0.0757
* RRIRVRPPRLPRPRPRPWDNPRP | 0.0145

*Q* Please look up its shrunken log2 fold change: RRIRSRPPRLPRPRPRPMYEPRP
*A* 0.0571

*Q* Cool, now RRIRYRPPRLPRPRPRPRRKPRP
*A* 0.0824

----------
Test system: Escherichia coli TOP10;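 note: peptides expressed intracellularly from a pBAD plasmid library in pooled LB shake-flask culture, induced with 0.3% L-arabinose, DNA abundance read by NGS, three biological replicates, DESeq2 with apeglm shrinkage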
protocol: shrunken log2 fold change of peptide-encoding DNA abundance (4.5 h post-induction vs induction); higher = less antimicrobial activity (less host growth inhibition)
test context: time post-induction: 4.5 h; library: site-saturation at positions 5, 18, 19, 20
Examples of sequences with documented shrunken log2 fold change follow.
Form field (numeric): enter value without unit.

The cases that follow already have their shrunken log2 fold change on record.
• RRIRKRPPRLPRPRPRPRCMPRP = 0.401
• RRIRTRPPRLPRPRPRPKPQPRP = 0.203
• RRIRERPPRLPRPRPRPAISPRP = -0.691
• RRIRRRPPRLPRPRPRPMTPPRP = 0.749
• RRIRSRPPRLPRPRPRPQFYPRP = -0.769
• RRIRFRPPRLPRPRPRPDSGPRP = -0.0156

*Q* Can you share its shrunken log2 fold change? I mean this sequence: RRIRDRPPRLPRPRPRPARYPRP
*A* 0.0754

*Q* One more sequence: RRIRSRPPRLPRPRPRPDICPRP
*A* -0.0721

*Q* And then RRIRERPPRLPRPRPRPAMFPRP , what is it?
*A* -1.09
